Assay: Second-order rate of Ferricyanide -mediated oxidation using spectrophotometric method
Type: ADME
Measured Ko accompanies every entry in the list below.
property_name: Ko (M⁻¹ s⁻¹)

| compound | unit_text | observed_result |
| --- | --- | --- |
| COC(=O)C(Cc1c[nH]c2ccccc12)NC(=O)c1ccc[n+](C)c1 (centres undefined) | M⁻¹ s⁻¹ | 13.8 |
| CCOC(=O)C(Cc1c[nH]c2ccccc12)NC(=O)c1ccc[n+](C)c1 (centres undefined) | M⁻¹ s⁻¹ | 13.5 |
| C[n+]1cccc(C(=O)NC(Cc2c[nH]c3ccccc23)C(=O)OC2CCCCC2)c1 (centres undefined) | M⁻¹ s⁻¹ | 12.2 |
| CCCCCCCCOC(=O)C(Cc1c[nH]c2ccccc12)NC(=O)c1ccc[n+](C)c1 (centres undefined) | M⁻¹ s⁻¹ | 7.61 |
